Tested on: SF-268
Test: NCI tumour cell line growth inhibition, 48 h
Active and inactive are the calls of the source. Rule as the data show it: active = GI50 up to about 1.1 µM and inactive = higher.
observed property: GI50

c1ccc2[nH]c(-c3nc4ccccc4o3)nc2c1; > 100 µM (inactive)
CCCn1cc2c(O)nc(SC)nc2n1; 59 µM (inactive)
Cc1ccc2c(c1)OC1Nc3ccccc3C1=C2O (stereo unspecified); 40 µM (inactive)

The recorded GI50 for COC(=O)[C@H](CC(C)C)NC(=O)[C@H](Cc1ccccc1)N1CC2C=CC1C2 (stereo partly specified) is > 100 µM (inactive)

The recorded GI50 for CCOC(=O)NC(Nc1cccc(C(F)(F)F)c1)(C(F)(F)F)C(F)(F)F is > 100 µM (inactive)

The recorded GI50 for Cc1ccc(C(=O)NCc2ccccc2)cc1/N=N/N(C)C is > 62.5 µM (inactive)
